Below, each entry is listed alongside its reported protein stability index.
assay: protein stability index of a GFP-peptide fusion (yeast GPS) (PSI 1-4); higher = more stable; sorted into four equal gates, so the index is relative within each strain; settings: san1∆

monomer.sequence: EEPSRVDPEQEAHNKAL [RPT4]
protein stability index: 3.46
//
monomer.sequence: SNPQHIIQPFLDNSKMD [RGR1]
protein stability index: 2.53
//
monomer.sequence: LQQGMRGAWGKPHGLAA [RPL10]
protein stability index: 2.24
//
monomer.sequence: TAVNGIDTDLFGAPNNP [YGL172W/NUP49]
protein stability index: 3.25
//
monomer.sequence: LPEKVNFRTMQQQQMQQ [SSN2]
protein stability index: 2.46
//
monomer.sequence: SVRKFLEIALFKYRKAR [RPO31]
protein stability index: 1.36
//
monomer.sequence: NTNPSPLKTQTKNGTPN [GAL11]
protein stability index: 2.58

* * *

Below, each entry is listed alongside its reported protein stability index.
test: protein stability index of a GFP-peptide fusion (yeast GPS) (PSI 1-4); higher = more stable; sorted into four equal gates, so the index is relative within each strain; settings: ubr1∆
measured.property: protein stability index

monomer.sequence: KENGQLIGAATKFKGGK [SEC65]
assay.value: 2.17

monomer.sequence: RDRKLITDKGTVDGRLY [YJL039C/NUP192]
assay.value: 3.17

monomer.sequence: LTVFYAIKKFKTEKDGV [SSN3]
assay.value: 1.97

monomer.sequence: NLNTDKLKNNASRSQLE [YJL039C/NUP192]
assay.value: 2.69

monomer.sequence: THEDLPKEVDGLEVGPV [IRR1]
assay.value: 3.18

monomer.sequence: NLFKINSIDVPIRINST [YMR129W/POM152]
assay.value: 2.17

monomer.sequence: YMFANLEFSIYHRLSNK [CSN12]
assay.value: 2.25

monomer.sequence: YCDPNTQEIRPVNTGVL [RRP40]
assay.value: 2.76

monomer.sequence: IKGNGESDETTTDNNNS [RPT1]
assay.value: 3.53

* * *

assay: protein stability index of a GFP-peptide fusion (yeast GPS) (PSI 1-4); higher = more stable; sorted into four equal gates, so the index is relative within each strain; details: doa10∆
Use 3 as the dividing line for protein stability index, with the line itself on the true side and lower values as false.

monomer.sequence: GPRNTEEKGWVPVTKLG [RPS2]
class.assignment: true
--
monomer.sequence: NKVVVNLNDAGLALQLF [RPN2]
class.assignment: false
--
monomer.sequence: AEKSYLYDSLASTPSIR [RRP42]
class.assignment: false
--
monomer.sequence: TDLENSSLFQEKLLETN [ECM29]
class.assignment: false
--
monomer.sequence: SVKFTHIAHTLPEKVNF [SSN2]
class.assignment: false
--
monomer.sequence: SSSMDMQANTNALRRNL [SSN3]
class.assignment: false
--
monomer.sequence: FLQRVRVWEYRQKNVIH [RPL15A]
class.assignment: false
--
monomer.sequence: ELAINLIRFDESITKAM [SMC2]
class.assignment: false
--
monomer.sequence: IGGLLSKVREEVGDVCI [RPO31]
class.assignment: false
--
monomer.sequence: KIPDTYTANTSAQSIAS [YAR002W/NUP60]
class.assignment: false
--
monomer.sequence: LTNQLYKNHELLKLERK [SNF2]
class.assignment: true
--
monomer.sequence: LIQSTEFPSITSSVILG [YOR098C/NUP1]
class.assignment: true
--
monomer.sequence: AAPSGNYKQLTLVGGGA [RRP43]
class.assignment: false
--
monomer.sequence: AKLWFYIYLSHETLARS [RPN3]
class.assignment: false
--
monomer.sequence: REYLEEYKSLFVVGVDN [RPP0]
class.assignment: true
--
monomer.sequence: ARNVTFDSLRNFIVHSP [GRR1]
class.assignment: false
--
monomer.sequence: DWEKYKAPLEDDDKKPD [RPT1]
class.assignment: true

* * *

experiment: protein stability index of a GFP-peptide fusion (yeast GPS) (PSI 1-4); higher = more stable; sorted into four equal gates, so the index is relative within each strain; conditions: doa10∆
Use 3 as the dividing line for protein stability index, with the line itself on the true side and lower values as false.

monomer.sequence: SILGKFCPIVEEIVSNS [YCS4]
class.assignment: false

monomer.sequence: PQGFSSVERGRKRAHSL [REC8]
class.assignment: true

monomer.sequence: KRAASVARHIYMRKQVG [RPS19A]
class.assignment: false

monomer.sequence: KDKTKNISAEIIRHEKE [SMC4]
class.assignment: false

monomer.sequence: SASFSLKNGDKPHMLKF [RPL6A]
class.assignment: false

monomer.sequence: DQLSTISMILRNISFSD [SWI1]
class.assignment: false

monomer.sequence: AEKLVPLPICHANSVVA [YML031W/NDC1]
class.assignment: false

monomer.sequence: LANYLTSALSELSGLIS [QCR2]
class.assignment: false

monomer.sequence: NDITNLQLSKTPLSIKI [SRB8]
class.assignment: false

monomer.sequence: QIPQQLYQSLTPQQLQM [SNF5]
class.assignment: false

monomer.sequence: SVLQLIVSEDHIILDTI [MED1]
class.assignment: false

monomer.sequence: NNNGLPQNGNINNNINI [GAL11]
class.assignment: true

monomer.sequence: IKEDIEKFDLERVTALK [SMC1]
class.assignment: true

monomer.sequence: LSNIPLLLITHHSWSQS [ARP9]
class.assignment: false

monomer.sequence: NKLEKLNSLLTYIKSEI [SMC4]
class.assignment: false

monomer.sequence: LDRPEYLKKREAGEVKD [RPL10]
class.assignment: true

monomer.sequence: NKLNFIVDDKQEMIDIL [DIB1]
class.assignment: true

monomer.sequence: LLFNNDFPLLKVLAAHT [RRP40]
class.assignment: false

monomer.sequence: NVTFGSKKDPRILKNVS [YMR153W/NUP53]
class.assignment: false

monomer.sequence: IGAGVPSLEVASEYIET [FAS1]
class.assignment: true

* * *

assay: protein stability index of a GFP-peptide fusion (yeast GPS) (PSI 1-4); higher = more stable; sorted into four equal gates, so the index is relative within each strain; details: doa10∆

monomer.sequence: INIQKKLEPKEIVRDIL [SIR4]
protein stability index: 3.05

monomer.sequence: TRMQRGHRADVGGQFSK [REC8]
protein stability index: 2.98

monomer.sequence: QTLSSHLEALQPLFSTV [PGD1]
protein stability index: 1.96

monomer.sequence: AAELQEKPLTPLKYTKL [SNF6]
protein stability index: 2.94

monomer.sequence: NRSEQNGQEQQGPVKNT [RGR1]
protein stability index: 3.26

monomer.sequence: ITSDALEGITTTIDSLN [SMC3]
protein stability index: 2.45

monomer.sequence: RTQPWSIMPDLYFYRDP [RPS0A]
protein stability index: 2.55

monomer.sequence: VQPTIGQLPQLPKLNLP [SNF5]
protein stability index: 3.05

monomer.sequence: LALTTLSEPLIKIGIRV [YCG1]
protein stability index: 1.81

monomer.sequence: KQTAAYRTPGSSGVLSS [SSN2]
protein stability index: 2.88

monomer.sequence: ELSRIENEVENINATNT [YCS4]
protein stability index: 3.52

monomer.sequence: NAEKTGKRQVLIRPSSK [RPS22A]
protein stability index: 3.28

monomer.sequence: VPDSKIRIYDLGKKKAT [RPL10]
protein stability index: 1.24

monomer.sequence: LVAKFLYPIFLLDDKKL [YJR042W/NUP85]
protein stability index: 1.49

monomer.sequence: DHKRFIVFHNEFSEHTF [DIS3]
protein stability index: 2.55

monomer.sequence: CEAAVEISKKDFVRKGG [SIR3]
protein stability index: 3.19

monomer.sequence: TCSYVEEAGSPLVYRHE [RPB9]
protein stability index: 3.06

monomer.sequence: VSVRKHLERNRKDKDAK [RPS13]
protein stability index: 3.38

monomer.sequence: TRDDLLTILMRSIMKNR [RRI2]
protein stability index: 2.36

monomer.sequence: EIEQPVTTFVFTGQGSQ [FAS1]
protein stability index: 2.86

monomer.sequence: LRRRTASHNVRRIPKRM [POP1]
protein stability index: 2.98

monomer.sequence: APVEVQEDFEVVEEFTP [RPS5]
protein stability index: 3.31

monomer.sequence: RFEVINNETEQLKAEEK [SMC1]
protein stability index: 1.72

monomer.sequence: KKNSSRPMPPIRGPKRR [SMD3]
protein stability index: 2.23

monomer.sequence: ALENDVATNIVNEDPIF [YML103C/NUP188]
protein stability index: 2.94

monomer.sequence: PCVEDGFVIQDRETALD [RPB2]
protein stability index: 3.17

monomer.sequence: AADNLGSYGSLLRFNGV [PRE4]
protein stability index: 3.03

monomer.sequence: NGQYAAFVKDMQVYLVP [RPC37]
protein stability index: 2.67

monomer.sequence: PLQNIHVRKVKLLKQPK [RPS1A]
protein stability index: 2.69

monomer.sequence: SIFAMGLCGAGTNNARL [RPN1]
protein stability index: 2.44

monomer.sequence: EELINAAKGSSTSYAIK [RPS5]
protein stability index: 2.66

monomer.sequence: SRLTLLLRALKTNEESA [PRP8]
protein stability index: 1.91

monomer.sequence: LLNILSGLPTCDYYNTF [RPN2]
protein stability index: 2.44

monomer.sequence: PMLMANNDVFTIGPYRA [SSN3]
protein stability index: 3.04

monomer.sequence: KAKRSNLYTPKAEMPPE [PRP8]
protein stability index: 2.98

monomer.sequence: SVAPTKQREIVKAFLSI [NUT1]
protein stability index: 2.1

monomer.sequence: REKNALKRLAWQYIVID [ISW2]
protein stability index: 2.1

monomer.sequence: TNNVLRKLGLLGDKEDE [MTW1]
protein stability index: 2.27

monomer.sequence: KNDNIKKSVNKLDKQIN [POP6]
protein stability index: 2.78

monomer.sequence: AATMTSAPPPALPHVEI [RGR1]
protein stability index: 2.52

monomer.sequence: PFKVFLDIGLQRTTTGA [RPL5]
protein stability index: 1.63

monomer.sequence: MKDRLVEWNDQVEKLGK [RPN9]
protein stability index: 3.4

monomer.sequence: VQQRYTQSGGVRPFGVS [PRE6]
protein stability index: 2.8

monomer.sequence: YISAELYAQLRENGLVP [SNU114]
protein stability index: 2.38

monomer.sequence: ARYYRTVAVLPPNWKYE [RPS13]
protein stability index: 1.89

monomer.sequence: DNKINEIKLLEISCKQW [CSI1]
protein stability index: 2.54

monomer.sequence: NTILNSSSDFRLHYYPK [BRR2]
protein stability index: 2.75

monomer.sequence: KSIIGKLTAERANLRKY [POP1]
protein stability index: 2.72

monomer.sequence: TNHSAAASTPTTTATPH [PGD1]
protein stability index: 2.91

monomer.sequence: QKTVNLKNIMKVSDPYV [RPN4]
protein stability index: 2.32

monomer.sequence: VDGMAKVPIGLILQRLK [RGR1]
protein stability index: 2.51

monomer.sequence: DDDKKPDDDKIVPLTEG [RPT1]
protein stability index: 3

monomer.sequence: PNDSNDEKVTILVDSLT [SWI1]
protein stability index: 2.67

monomer.sequence: GGNFKDLSTLVHSSSPS [GAL11]
protein stability index: 1.48

monomer.sequence: KNLKDTASVEKAEFSKE [YIL149C/MLP2]
protein stability index: 3.07
